Ref: the supplement of paper PMC12042874

experiment: amyloid nucleation score (Sup35N fusion, yeast selection) (log enrichment); library NNK1; higher = more nucleation; inactive = no reads after selection;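 further: zero at mode of non-aggregating sequences after 7 days selection at 30°C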
Reported amyloid nucleation score values for a set of substances
Give the figure only, with no unit attached.

These solved cases illustrate the format of a correct answer.
IIHFKSGIWNATDGCLIMCV: 0.793
WFSTDGWKNMSDSLASWSCY: 0.863
SGQIQFIMIR: 0.727
WAILLSWGYKGSRAWWFFSI: -0.721
SVRCCRFGIGGYWP: -1.07

(Q) Quick one: amyloid nucleation score of CSFLELLWDVGRCSASQQCM ?
(A) -0.943

(Q) Also YYMLGYLDSYLWSENDLWMC ?
(A) 0.642

(Q) Also SMRWVDL ?
(A) 1.19

(Q) Also NPWLSNFSCK ?
(A) 0.244
